- Test system: A375
- test method notes: A375 proliferation, BrdU uptake
- Type: cell-based
- measurement context: Homo sapiens, A-375; A375, non-stimulated; read-out: IC50 of non-stimulated cells
measured endpoint: IC50

### Prompt Requested read-out IC50, target or system A375, entry COc1cc(-c2nc(Nc3ccc(C)cc3)c3ccccc3n2)cc(OC)c1OC
### Response ~800 nM

###

Answer each item with its documented melting point.

> print(dat)
                            smiles.notation    result
1  Oc1cc(-c2nc(Nc3ccc4nc[nH]c4c3)c3ccccc3n2)cc(O)c1O  > 250 °C
2  Oc1cc(-c2nc(Nc3ccc4c(c3)OCO4)c3ccccc3n2)cc(O)c1O  > 250 °C
3  COc1cc(-c2nc(NCc3ccc(N)cc3)c3ccccc3n2)cc(OC)c1OC  > 250 °C
4  COc1cc(-c2nc(Nc3ccc(C)cc3C)c3ccccc3n2)cc(OC)c1OC  > 250 °C
5  COc1cc(-c2nc(Nc3ccc4cn[nH]c4c3)c3ccccc3n2)cc(OC)c1OC  > 250 °C
6  COc1cc(-c2nc(Nc3ccccc3)c3ccccc3n2)cc(OC)c1OC  > 250 °C

Working through the 3 compounds below one at a time, give melting point for each.
1. Nc1ccc(CNc2nc(-c3cc(O)c(O)c(O)c3)nc3ccccc23)cc1
2. COc1cc(-c2nc(NCc3ccc(F)c(F)c3)c3ccccc3n2)cc(OC)c1OC
3. Oc1cc(-c2nc(NCc3ccc(F)c(F)c3)c3ccccc3n2)cc(O)c1O

### Response
1: > 250 °C; 2: > 250 °C; 3: > 250 °C

###

- Test system: Jurkat cells
- test method notes: Jurkat cell proliferation, BrdU incorporation
- Format: cell-based, human
- measurement context: Homo sapiens, Jurkat, non-stimulated, BrdU uptake; read-out: IC50 of non-stimulated cells
measured endpoint: IC50
Express the reported value numerically, then name its unit.

### Prompt Fill blank: measured IC50 of the compound COc1cc(-c2nc(Nc3ccc(C)cc3)c3ccccc3n2)cc(OC)c1OC is ____.
### Response 50 nM

###

- Test system: Jurkat cells
- test method notes: Jurkat cell proliferation, BrdU incorporation
- Format: cell-based, human
- measurement context: Homo sapiens, Jurkat, BrdU uptake; nM ± SD; read-out: IC50 Jurkat cells proliferation inhibition
measured endpoint: log10 IC50 (log10 of the value in nM)
A value of 2 here means IC50 of 100 in nM, since values are log10.

In the examples that follow, each entry is paired with its recorded log10 IC50.
> print(dat)
                            smiles.notation  quantitative.result
1  COc1cc(-c2nc(Nc3ccc(Cl)cc3)c3ccccc3n2)cc(OC)c1OC                 2.72
2  COc1cc(-c2nc(Nc3ccc(C)cc3)c3ccccc3n2)cc(OC)c1OC                 1.48
3  COc1cc(-c2nc(Nc3ccc4[nH]ncc4c3)c3ccccc3n2)cc(OC)c1OC                 2.85
4  COc1cc(-c2nc(NCc3ccc(N)cc3)c3ccccc3n2)cc(OC)c1OC                 2.68
5  COc1cc(-c2nc(Nc3ccc4c(c3)OCO4)c3ccccc3n2)cc(OC)c1OC                 2.78

Working through the 8 compounds below one at a time, give log10 IC50 for each.
1. COc1ccc(CNc2nc(-c3cc(OC)c(OC)c(OC)c3)nc3ccccc23)cc1
2. Oc1cc(-c2nc(Nc3ccc(Cl)cc3)c3ccccc3n2)cc(O)c1O
3. Oc1cc(-c2nc(Nc3ccc4cn[nH]c4c3)c3ccccc3n2)cc(O)c1O
4. Oc1ccc(Nc2nc(-c3cc(O)c(O)c(O)c3)nc3ccccc23)cc1
5. COc1cc(-c2nc(NCc3ccccc3)c3ccccc3n2)cc(OC)c1OC
6. COc1cc(-c2nc(Nc3ccccc3)c3ccccc3n2)cc(OC)c1OC
7. Oc1cc(-c2nc(Nc3ccc4c(c3)OCO4)c3ccccc3n2)cc(O)c1O
8. Oc1cc(-c2nc(Nc3ccc4nc[nH]c4c3)c3ccccc3n2)cc(O)c1O

### Response
[3.04, 3.63, 2.84, 3.05, 2.78, 2.58, 2.90, 3.41]

###

- Test system: MDA-MB-231
- test method notes: MDA-MB-231 proliferation, BrdU uptake
- Assay type: cell-based
- measurement context: Homo sapiens; MDA-MB-231, EGF (30 ng/ml) activated; read-out: IC50 of stimulated cells
pIC50: −log10 of the molar value.
measured endpoint: pIC50

### Prompt Fill blank: measured pIC50 of the compound COc1cc(-c2nc(Nc3ccc(C)cc3)c3ccccc3n2)cc(OC)c1OC is ____.
### Response < 5.00

###

Answer each item with its documented IC50.
- Tested on: Jurkat cells
- test method notes: Jurkat cell proliferation, BrdU incorporation
- Assay type: cell-based, human
- measurement context: Homo sapiens, Jurkat, BrdU uptake; nM ± SD; read-out: IC50 Jurkat cells proliferation inhibition
Give bare numbers, in nM.

In the examples that follow, each entry is paired with its recorded IC50.
> print(dat)
                            smiles.notation  measured.endpoint  quantitative.result
1  Oc1cc(-c2nc(Nc3ccc4[nH]ncc4c3)c3ccccc3n2)cc(O)c1O               IC50                  710
2  Oc1cc(-c2nc(Nc3ccc(OC(F)(F)F)cc3)c3ccccc3n2)cc(O)c1O               IC50                 3240
3  Nc1ccc(CNc2nc(-c3cc(O)c(O)c(O)c3)nc3ccccc23)cc1               IC50                  670
4  COc1cc(-c2nc(Nc3ccccc3CO)c3ccccc3n2)cc(OC)c1OC               IC50                  580

Working through the 3 molecules below one at a time, give IC50 for each.
1. CCCCCCCCOc1ccc(Nc2nc(-c3cc(OC)c(OC)c(OC)c3)nc3ccccc23)cc1
2. Oc1cc(-c2nc(NCc3ccc(F)c(F)c3)c3ccccc3n2)cc(O)c1O
3. CCCCCCCCOc1ccc(Nc2nc(-c3cc(O)c(O)c(O)c3)nc3ccccc23)cc1

### Response
[850, 600, 4250]

### Prompt Fill blank: measured IC50 of the molecule COc1cc(-c2nc(NCCc3c[nH]c4ccccc34)c3ccccc3n2)cc(OC)c1OC is ____.
### Response 700

###

- Tested on: Jurkat cells
- test method notes: Jurkat cell proliferation, BrdU incorporation
- Format: cell-based, human
- measurement context: Homo sapiens, Jurkat, BrdU uptake; nM ± SD; read-out: IC50 Jurkat cells proliferation inhibition
measured endpoint: IC50 (nM)
Numbers only, in nM.

> print(dat)
                                   molecule  assayed.system  unit.of.measure  quantitative.result
1  Oc1cc(-c2nc(NCc3ccccc3)c3ccccc3n2)cc(O)c1O [Compound 29]    Jurkat cells               nM                  950

Working through the 8 molecules below one at a time, give IC50 for each.
1. Cc1ccc(Nc2nc(-c3cc(O)c(O)c(O)c3)nc3ccccc23)cc1 [Compound 21]
2. Cc1ccc(Nc2nc(-c3cc(O)c(O)c(O)c3)nc3ccccc23)c(C)c1 [Compound 22]
3. Oc1cc(-c2nc(Nc3ccccc3)c3ccccc3n2)cc(O)c1O [Compound 20]
4. Oc1cc(-c2nc(NCc3ccc(Cl)c(Cl)c3)c3ccccc3n2)cc(O)c1O [Compound 32]
5. COc1cc(-c2nc(Nc3ccc(OC(F)(F)F)cc3)c3ccccc3n2)cc(OC)c1OC [Compound 7]
6. COc1cc(-c2nc(Nc3ccc(C)cc3C)c3ccccc3n2)cc(OC)c1OC [Compound 3]
7. COc1ccc(Nc2nc(-c3cc(O)c(O)c(O)c3)nc3ccccc23)cc1 [Compound 24]
8. COc1cc(-c2nc(Nc3ccc4nc[nH]c4c3)c3ccccc3n2)cc(OC)c1OC [Compound 19]

### Response
1: 850; 2: 3700; 3: 5500; 4: 3640; 5: 180; 6: 2600; 7: 550; 8: 1500

Working through the 6 molecules below one at a time, give IC50 for each.
1. COc1cc(-c2nc(Nc3ccc4cn[nH]c4c3)c3ccccc3n2)cc(OC)c1OC [Compound 15]
2. COc1ccc(CNc2nc(-c3cc(O)c(O)c(O)c3)nc3ccccc23)cc1 [Compound 33]
3. COc1cc(-c2nc(NCc3ccc(Cl)c(Cl)c3)c3ccccc3n2)cc(OC)c1OC [Compound 13]
4. Oc1cc(-c2nc(NCCc3c[nH]c4ccccc34)c3ccccc3n2)cc(O)c1O [Compound 36]
5. OCc1ccccc1Nc1nc(-c2cc(O)c(O)c(O)c2)nc2ccccc12 [Compound 28]
6. COc1cc(-c2nc(Nc3ccc(O)cc3)c3ccccc3n2)cc(OC)c1OC [Compound 4]

### Response
1. 600
2. 5430
3. 730
4. 1970
5. 650
6. 230

Working through the 2 molecules below one at a time, give IC50 for each.
1. COc1cc(-c2nc(NCc3ccc(F)c(F)c3)c3ccccc3n2)cc(OC)c1OC [Compound 12]
2. COc1ccc(Nc2nc(-c3cc(OC)c(OC)c(OC)c3)nc3ccccc23)cc1 [Compound 5]

### Response
1. 730
2. 1100

These measurements were taken from patent US8759363B2.
